The measured values listed here are drawn from patent EP4635950A1.

assay: Equilibrium solubility, 24 hours at 37°C in 4 media, with XRPD of residual solid
Assay type: physicochemical
protocol conditions: FaSSIF (fasted-state simulated intestinal fluid), 37 °C, fassif, thermodynamic from solid, FaSSIF, read-out: Solubility after 24 h
attribute measured: solubility at 24 h (µg/mL)
Kindly answer with a numeric value in µg/mL, unit omitted.

Which measured solubility at 24 h value corresponds to O=C(O)c1ccc2nc(CN3CCC(c4cccc(OCc5ccc(C6COC6)cc5F)n4)CC3)n(C[C@@H]3CCO3)c2c1 [Crystal Form A] ?
50

----------
assay: Equilibrium solubility, 24 hours at 37°C in 4 media, with XRPD of residual solid
Type: physicochemical
protocol conditions: purified water, 37 °C, water, thermodynamic from solid, H2O, read-out: Solubility after 24 h
attribute measured: solubility at 24 h

Which measured solubility at 24 h value corresponds to O=C(O)c1ccc2nc(CN3CCC(c4cccc(OCc5ccc(C6COC6)cc5F)n4)CC3)n(C[C@@H]3CCO3)c2c1 [Crystal Form A] ?
< 100 µg/mL
